molecular target: BCG_0628c (lpqN, Rv0583c) (Mycobacterium tuberculosis)
Sequence (O53780 20-228): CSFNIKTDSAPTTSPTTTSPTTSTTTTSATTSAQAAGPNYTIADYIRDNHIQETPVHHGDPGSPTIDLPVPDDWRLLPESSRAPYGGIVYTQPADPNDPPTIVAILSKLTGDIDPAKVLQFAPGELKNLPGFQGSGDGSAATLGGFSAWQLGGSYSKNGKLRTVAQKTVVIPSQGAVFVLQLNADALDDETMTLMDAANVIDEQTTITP
measurement name: Kd (nM)
Give just the number in nM; leave the unit off.

**Query** Identify the measured Kd of CS(=O)(=O)NC(=O)CCc1cn(-c2ccc(Br)cc2)nc1-c1ccncc1 [Compound 1] for BCG_0628c (lpqN, Rv0583c) (Mycobacterium tuberculosis).
**Result** 1800

###

In this section, each of the molecules is paired with its reported IC50.
target: Mtb HadAB (Mycobacterium tuberculosis, UniProt I6WYY7+P9WFK1); test: biochemical; details: HadAB IC50, HadAB 22 nM, trans-2-C16:1-CoA 60 μM; mean ± SD of duplicate assays
Give just the number in µM; leave the unit off.

| molecule | IC50, µM |
| --- | --- |
| CCc1c(COC(=O)NS(C)(=O)=O)c(-c2ccc(Cl)cc2)nn1-c1ccc(Cl)cc1 [Compound 15] | 28 |
| CS(=O)(=O)c1nnc(Cc2cn(-c3ccc(Cl)cc3)nc2-c2ccncc2)o1 [Compound 13] | 102 |
| CS(=O)(=O)NC(=O)CCc1cn(-c2ccc(Br)cc2)nc1-c1ccncc1 [Compound 1] | 0.1 |
| CS(=O)(=O)NC(=O)CCc1cn(-c2ccc(Cl)cc2)nc1-c1ccc(Cl)cc1 [Compound 2] | 0.13 |
| O=C(O)CCc1cn(-c2ccc(Br)cc2)nc1-c1ccc(Cl)cc1 [Compound 10] | 3.3 |

Consider the additional molecule presented here.
**Query** Requested field: IC50. Item: CS(=O)(=O)NC(=O)NCc1cc(-c2ccc(Br)cc2)oc1-c1ccncc1 [Compound 14]
**Result** 0.02

###

test system: HepG2; test: HepG2 cytotoxicity; conditions: Homo sapiens, HepG2, read-out: HepG2 IC50 (galactose)
measurement name: IC50

| line notation | IC50 |
| --- | --- |
| CS(=O)(=O)NC(=O)CCc1cn(-c2ccc(Br)cc2)nc1-c1ccncc1 | > 50 µM |

**Query** Identify the measured IC50 of `CS(=O)(=O)NC(=O)CCc1cn(-c2ccc(Cl)cc2)nc1-c1ccc(Cl)cc1` for HepG2.
**Result** > 50 µM

###

In this section, each of the compounds is paired with its reported solubility.
test: physchem
Give just the number in µM; leave the unit off.

| compound | value unit | readout number |
| --- | --- | --- |
| CS(=O)(=O)NC(=O)CCc1cn(-c2ccc(Br)cc2)nc1-c1ccncc1 [Compound 1] | µM | 190 |

Consider the additional compound presented here.
**Query** Requested field: solubility. Item: CS(=O)(=O)NC(=O)CCc1cn(-c2ccc(Cl)cc2)nc1-c1ccc(Cl)cc1 [Compound 2]
**Result** 100

###

Quick record of Kd values for BCG_2231 (DlaT, Rv2215) (Mycobacterium bovis).
Give just the number in µM; leave the unit off.

| molecule | value unit | Kd |
| --- | --- | --- |
| CS(=O)(=O)NC(=O)CCc1cn(-c2ccc(Cl)cc2)nc1-c1ccc(Cl)cc1 [Compound 2] | µM | 6.6 |

Consider the additional molecule presented here.
**Query** Identify the measured Kd of CS(=O)(=O)NC(=O)CCc1cn(-c2ccc(Br)cc2)nc1-c1ccncc1 [Compound 1] for BCG_2231 (DlaT, Rv2215) (Mycobacterium bovis).
**Result** 1
